Tested On: MAO-A (amine oxidase [flavin-containing] A) (Homo sapiens)
Sequence (P21397 whole entry): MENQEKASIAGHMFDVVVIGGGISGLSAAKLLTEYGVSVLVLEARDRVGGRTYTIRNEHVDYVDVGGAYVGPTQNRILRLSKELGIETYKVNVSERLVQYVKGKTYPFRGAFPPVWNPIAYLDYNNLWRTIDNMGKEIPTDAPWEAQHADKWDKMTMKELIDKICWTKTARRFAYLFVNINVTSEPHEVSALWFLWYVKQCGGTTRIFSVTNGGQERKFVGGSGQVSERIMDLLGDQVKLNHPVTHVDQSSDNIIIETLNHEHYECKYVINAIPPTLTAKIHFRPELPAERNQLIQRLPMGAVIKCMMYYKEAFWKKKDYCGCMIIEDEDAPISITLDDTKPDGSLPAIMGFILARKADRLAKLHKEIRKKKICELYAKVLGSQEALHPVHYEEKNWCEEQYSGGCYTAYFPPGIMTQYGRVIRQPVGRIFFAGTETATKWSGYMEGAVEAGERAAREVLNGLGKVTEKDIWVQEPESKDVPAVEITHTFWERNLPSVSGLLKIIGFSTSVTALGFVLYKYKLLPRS
Method: Inhibition of human MAO-A at 10 uM by CEREP assay
Observation Type: inhibition at 10 µM (%)

molecule_smiles=CCc1cccc(CC)c1Cc1ncc[nH]1 observation_type="inhibition at 10 µM" output_unit=% obs_value=-4

----------
Method: Volume of distribution at steady state in mouse at 5 mg/kg, iv
Assay type: ADME, organism-based
Parameters: dose 5 mg/kg, route intravenous
Condition Context: in vivo, read-out: Vdss
Observation Type: Vd (L/kg)

molecule_smiles=CC(C)N(Cc1cnc[nH]1)c1ccc(Cl)cc1 observation_type=Vd obs_value=2

----------
Method: Dissociation constant, pKa of the compound
Assay type: physicochemical
Observation Type: pKa

molecule_smiles=CC(C)N(Cc1cnc[nH]1)c1ccc(Cl)cc1 obs_value=3.5
